- Test system: mice (p-phenylquinone-induced abdominal writhing)
- test summary: P-phenylquinone-induced abdominal writhing test in mice
- Type: in vivo
- run conditions: Mus musculus, sc, p-phenylquinone i.p. 2 mg/Kg after 20 min pretreatment, calculated for the free base, read-out: ANALGESIA WRITHING ED50 (a)
Structures can show the parent of a compound that is named as a salt.
value kind: ED50 (mg/kg)

>  <molecule>
O=C(Cc1ccc(Cl)c(Cl)c1)N1CCc2sccc2C1CN1CCCCC1 (single isomer, unassigned) [Example 10, tartrate hemihydrate]

>  <censoring operator>
=

>  <recorded result>
0.01

$$$$
>  <molecule>
O=C(Cc1ccc(Cl)c(Cl)c1)N1CCc2[nH]c3ccccc3c2C1CN1CCCCC1 (stereo not drawn) [Example 16]

>  <censoring operator>
>

>  <recorded result>
10

$$$$
>  <molecule>
CC(C1c2ccsc2CCN1C(=O)Cc1ccc(Cl)c(Cl)c1)N(C)C.Cl (single isomer, unassigned) [Example 18]

>  <censoring operator>
=

>  <recorded result>
0.204

$$$$
>  <molecule>
O=C(Cc1ccc2c(c1)CCCC2)N1CCc2sccc2C1CN1CCCCC1 (stereo not drawn) [Example 19, hydrochloride hemihydrate]

>  <censoring operator>
=

>  <recorded result>
0.092

$$$$
>  <molecule>
Cl.O=C(Cc1ccc2c(c1)CCC2)N1CCc2sccc2C1CN1CCCC1 (stereo not drawn) [Example 22]

>  <censoring operator>
=

>  <recorded result>
0.014

$$$$
>  <molecule>
O=C(Cc1ccc(C(F)(F)F)cc1)N1CCc2sccc2C1CN1CCCCC1 (single isomer, unassigned) [Example 13, tartrate monohydrate]

>  <censoring operator>
=

>  <recorded result>
0.01

$$$$
